Reference source for all entries: the Human Domainome abundance scans (Beltran et al. 2025)

B1: Intersectin-2, residues 1129 to 1183; numbered along this chain, Q9NZM3 (parent)
chain: VCQVIAMYDYAANNEDELSFSKGQLINVMNKDDPDWWQGEINGVTGLFPSNYVKM

variants of: B1; assay: abundance fitness (aPCA) (normalised: wild type 0, dead -1); higher = more abundant; growth selection in yeast, the domain comes from the species named; settings: Homo sapiens
property_name: abundance fitness
The reply should be a number, written without any unit.

Form field: reported abundance fitness of K54V
-0.161

Form field: reported abundance fitness of Y52W
-0.139

Form field: reported abundance fitness of N51Y
-0.067

Form field: reported abundance fitness of L18T
-0.778

Form field: reported abundance fitness of Y10H
-0.124

Form field: reported abundance fitness of S19R
-0.181

Form field: reported abundance fitness of Q3E
0.081

Form field: reported abundance fitness of E17D
-0.16

Form field: reported abundance fitness of W36H
-0.054

Form field: reported abundance fitness of N42P
-0.473

Form field: reported abundance fitness of L18W
-0.841

Form field: reported abundance fitness of D9I
-0.594

Form field: reported abundance fitness of F48V
-0.027

Form field: reported abundance fitness of Y52F
0.15

Form field: reported abundance fitness of E15W
-0.141

Form field: reported abundance fitness of G23S
-0.07

Form field: reported abundance fitness of M29G
-0.065

Form field: reported abundance fitness of V44Q
-0.083

Form field: reported abundance fitness of P34W
-0.161

Form field: reported abundance fitness of S21A
0.001

Form field: reported abundance fitness of V44S
-0.046

Form field: reported abundance fitness of I41R
-0.028

Form field: reported abundance fitness of T45G
-0.042

Form field: reported abundance fitness of A11Y
-0.111

Form field: reported abundance fitness of E17Y
0.064

Form field: reported abundance fitness of A12P
-0.144

Form field: reported abundance fitness of T45Q
-0.024

Form field: reported abundance fitness of M55E
0.009

Form field: reported abundance fitness of Y52L
0.037

Form field: reported abundance fitness of G39Y
-0.878

Form field: reported abundance fitness of P49H
-0.1

Form field: reported abundance fitness of V4Q
-0.349

Form field: reported abundance fitness of W37I
-0.615

Form field: reported abundance fitness of K31W
-0.138

Form field: reported abundance fitness of Q38N
-0.248

Form field: reported abundance fitness of V1F
0.04

Form field: reported abundance fitness of C2S
-0.006

Form field: reported abundance fitness of D33R
-0.015

Form field: reported abundance fitness of C2A
-0.116

Form field: reported abundance fitness of S19Y
-0.197

Form field: reported abundance fitness of N27M
-0.02

Form field: reported abundance fitness of L47C
-0.185

Form field: reported abundance fitness of K54M
-0.154

Form field: reported abundance fitness of Y8S
0.001

Form field: reported abundance fitness of Y10Q
-0.505

Form field: reported abundance fitness of S19L
-0.615
